Exercise: for every item that follows, state its recorded Selectivity Index (HC50/MICMRSA).
system: Human red blood cells; assay: Hemolytic activity; conditions: HC50 over MIC against MRSA

query: Could you share which Selectivity Index (HC50/MICMRSA) value was measured for CCCCCCCCCCCCCCCC(=O)N[C@@H](Cc1ccccc1)CN(CC(N)=O)C(=O)CCN(C[C@@H](N)CCCCN)C(=O)CCN [YW-2] ?
result: >41.7

query: Another: CCCCCCCCCCCCCCCC(=O)N[C@@H](CCCCN)CN(CC(N)=O)C(=O)CCN(C[C@@H](N)CCCCN)C(=O)CCN [YW-6]
result: >83.3

query: Another: CCCCCCCCCCCCCCCC(=O)N[C@@H](Cc1ccc(O)cc1)CN(CC(N)=O)C(=O)CCN(C[C@@H](N)CCCCN)C(=O)CCN [YW-4]
result: >83.3

query: Another: CCCCCCCCCCCCCCCC(=O)N[C@@H](CO)CN(CC(N)=O)C(=O)CCN(C[C@@H](N)CCCCN)C(=O)CCN [YW-5]
result: >41.7

###

test system: E. coli (ATCC 25922); format: cell-based; settings: ATCC 25922, 16 h
Exercise: for every item that follows, state its recorded MIC, Gram-Negative (−), E. coli.

query: Could you share which MIC, Gram-Negative (−), E. coli value was measured for CCCCCCCCCCCCCCCC(=O)N[C@@H](CC(C)C)CN(CC(N)=O)C(=O)CCN(C[C@@H](N)CCCCN)C(=O)CCN [YW-1] ?
result: 3.0 to 6.0 µg/mL

query: Another: CCCCCCCCCCCCCCCC(=O)N[C@@H](CCCCNC(=N)N)CN(CC(N)=O)C(=O)CCN(C[C@@H](N)CCCCN)C(=O)CCN [YW-7]
result: 3.0 to 6.0 µg/mL

query: Another: CCCCCCCCCCCCCCCC(=O)N[C@@H](CO)CN(CC(N)=O)C(=O)CCN(C[C@@H](N)CCCCN)C(=O)CCN [YW-5]
result: 6 to 12.5 µg/mL

query: Another: CCCCCCCCCCCCCCCC(=O)N[C@@H](Cc1ccc(O)cc1)CN(CC(N)=O)C(=O)CCN(C[C@@H](N)CCCCN)C(=O)CCN [YW-4]
result: 3.0 to 6.0 µg/mL

query: Another: CCCCCCCCCCCCCCCC(=O)N[C@@H](CCCCN)CN(CC(N)=O)C(=O)CCN(C[C@@H](N)CCCCN)C(=O)CCN [YW-6]
result: 6 to 12.5 µg/mL

query: Another: CCCCCCCCCCCCCCCC(=O)N[C@@H](Cc1ccccc1)CN(CC(N)=O)C(=O)CCN(C[C@@H](N)CCCCN)C(=O)CCN [YW-2]
result: 3.0 to 6.0 µg/mL

query: Another: CCCCCCCCCCCCCCCC(=O)N[C@@H](C)CN(CC(N)=O)C(=O)CCN(C[C@@H](N)CCCCN)C(=O)CCN [YW-3]
result: 3.0 to 6.0 µg/mL

###

Exercise: for every item that follows, state its recorded Selectivity Index (HC50/MICMRSA).
test system: Human red blood cells; assay: Hemolytic activity; conditions: HC50 over MIC against MRSA

query: Could you share what Selectivity Index (HC50/MICMRSA) was measured for CCCCCCCCCCCCCCCC(=O)N[C@@H](CC(C)C)CN(CC(N)=O)C(=O)CCN(C[C@@H](N)CCCCN)C(=O)CCN , tested on Human red blood cells?
result: >41.7

query: Another: CCCCCCCCCCCCCCCC(=O)N[C@@H](C)CN(CC(N)=O)C(=O)CCN(C[C@@H](N)CCCCN)C(=O)CCN
result: >83.3

query: Another: CCCCCCCCCCCCCCCC(=O)N[C@@H](CCCCNC(=N)N)CN(CC(N)=O)C(=O)CCN(C[C@@H](N)CCCCN)C(=O)CCN
result: >83.3

###

test system: Human red blood cells; conditions: red cells of human, 1 h
Exercise: for every item that follows, state its recorded HC50.

query: Could you share which HC50 value was measured for CCCCCCCCCCCCCCCC(=O)N[C@@H](C)CN(CC(N)=O)C(=O)CCN(C[C@@H](N)CCCCN)C(=O)CCN ?
result: >125 µg/mL

query: Another: CCCCCCCCCCCCCCCC(=O)N[C@@H](CCCCN)CN(CC(N)=O)C(=O)CCN(C[C@@H](N)CCCCN)C(=O)CCN
result: >125 µg/mL

query: Another: CCCCCCCCCCCCCCCC(=O)N[C@@H](Cc1ccc(O)cc1)CN(CC(N)=O)C(=O)CCN(C[C@@H](N)CCCCN)C(=O)CCN
result: >125 µg/mL

Numbers sourced from paper PMC10094648.
